Where do these numbers come from? They come from patent US8338597B2.

EXPERIMENTAL SYSTEM: Btk (Homo sapiens, UniProt Q06187)
Sequence (Q06187 whole entry, species assumed): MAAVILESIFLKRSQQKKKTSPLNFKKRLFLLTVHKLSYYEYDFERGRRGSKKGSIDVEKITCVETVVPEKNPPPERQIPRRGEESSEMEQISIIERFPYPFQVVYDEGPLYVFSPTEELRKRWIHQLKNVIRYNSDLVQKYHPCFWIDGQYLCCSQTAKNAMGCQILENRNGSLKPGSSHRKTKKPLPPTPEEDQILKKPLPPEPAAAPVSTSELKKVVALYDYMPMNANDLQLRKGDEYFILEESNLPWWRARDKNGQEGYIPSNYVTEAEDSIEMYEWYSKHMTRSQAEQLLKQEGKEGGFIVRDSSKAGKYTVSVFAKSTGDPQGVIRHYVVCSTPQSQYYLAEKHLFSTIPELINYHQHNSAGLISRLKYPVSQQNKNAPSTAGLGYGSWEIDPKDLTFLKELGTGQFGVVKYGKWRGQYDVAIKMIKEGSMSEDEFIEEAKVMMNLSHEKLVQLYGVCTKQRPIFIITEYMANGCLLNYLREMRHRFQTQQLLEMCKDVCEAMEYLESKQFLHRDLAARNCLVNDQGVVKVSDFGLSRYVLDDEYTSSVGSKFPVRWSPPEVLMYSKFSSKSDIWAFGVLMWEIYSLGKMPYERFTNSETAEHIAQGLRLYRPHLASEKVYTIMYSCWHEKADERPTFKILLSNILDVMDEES
TEST PROTOCOL: BTK inhibition assay, radioactive-phosphate incorporation
TEST CONDITIONS: 50 μM [γ-33P]ATP, 25 nM Btk, 25° C.
ATTRIBUTE MEASURED: Ki

Please respond with reported Ki (system Btk (Homo sapiens, UniProt Q06187)) for CC(C)(N)CNc1cccc(-c2c[nH]c(=O)c(NC(=O)c3ccc(N4CCCCC4)cc3)c2)n1 [II-112] .
< 500 nM

Report Ki on Btk (Homo sapiens, UniProt Q06187) for this entry: CNc1nccc(-c2c[nH]c(=O)c(NC(=O)c3ccc(N4CCC[C@H]4CN4CCCC4)cc3)c2)n1 [II-80]
< 500 nM

# return Ki for CNc1nccc(-c2c[nH]c(=O)c(NC(=O)c3ccc(N4CCN(C(C)C)CC4)cc3)c2)n1 [II-78] , test system: Btk (Homo sapiens, UniProt Q06187)
< 500 nM

Please indicate recorded Ki of CNc1cncc(-c2c[nH]c(=O)c(NC(=O)c3ccc(N4CCCCC4)cc3)c2)n1 [II-114] measured with Btk (Homo sapiens, UniProt Q06187).
> 500 nM

# return Ki for CNc1ccc(C)c(-c2c[nH]c(=O)c(NC(=O)c3ccc(C(C)(C)C)cc3)c2)c1 [II-43] , test system: Btk (Homo sapiens, UniProt Q06187)
> 500 nM

Provide Ki, recorded with Btk (Homo sapiens, UniProt Q06187), of CNCCNc1cccc(-c2c[nH]c(=O)c(NC(=O)c3ccc(N4CCCCC4)cc3)c2)n1 [II-51]
< 500 nM

Report value only: Ki, Btk (Homo sapiens, UniProt Q06187), CNCCNc1nccc(-c2c[nH]c(=O)c(NC(=O)c3ccc(N4CCCCC4)cc3)c2)n1 [II-63]
< 500 nM

State measured Ki of the compound CN(C)CCNc1nccc(-c2c[nH]c(=O)c(NC(=O)c3ccc(N4CCCCC4)cc3)c2)n1 [II-58] with Btk (Homo sapiens, UniProt Q06187).
< 500 nM

Look up and report Ki, with Btk (Homo sapiens, UniProt Q06187) as system, for CNc1nccc(-c2c[nH]c(=O)c(NC(=O)c3ccc(N4CCNCC4)cc3)c2)n1 [II-77]
< 500 nM

Report Ki from Btk (Homo sapiens, UniProt Q06187) testing of CC(O)[C@@H](CO)Nc1cccc(-c2c[nH]c(=O)c(NC(=O)c3ccc(N4CCCCC4)cc3)c2)n1 (stereo partly shown) [II-149]
> 500 nM

* * *

Would you kindly list pKi for each of these molecules?
EXPERIMENTAL SYSTEM: Itk (Homo sapiens)
Sequence (Q08881 whole entry, species assumed): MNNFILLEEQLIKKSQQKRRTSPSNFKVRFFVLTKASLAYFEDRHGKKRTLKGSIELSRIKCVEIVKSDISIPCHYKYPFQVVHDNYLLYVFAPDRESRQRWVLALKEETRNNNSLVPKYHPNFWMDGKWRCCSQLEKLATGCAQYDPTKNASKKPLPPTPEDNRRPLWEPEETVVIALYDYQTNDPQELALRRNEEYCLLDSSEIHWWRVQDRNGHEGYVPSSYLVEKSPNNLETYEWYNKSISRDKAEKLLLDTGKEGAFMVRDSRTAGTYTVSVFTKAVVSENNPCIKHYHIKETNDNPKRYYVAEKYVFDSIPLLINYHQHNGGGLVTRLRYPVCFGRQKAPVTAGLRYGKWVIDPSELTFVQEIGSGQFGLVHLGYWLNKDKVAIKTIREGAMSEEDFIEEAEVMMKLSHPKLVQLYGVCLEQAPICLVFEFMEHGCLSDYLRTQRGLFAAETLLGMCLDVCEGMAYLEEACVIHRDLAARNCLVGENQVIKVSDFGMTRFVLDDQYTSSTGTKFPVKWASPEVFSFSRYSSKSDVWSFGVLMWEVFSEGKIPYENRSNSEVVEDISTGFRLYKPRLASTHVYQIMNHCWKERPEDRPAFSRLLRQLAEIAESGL
TEST PROTOCOL: ITK inhibition assay, radioactive-phosphate incorporation
Type: biochemical
TEST CONDITIONS: [γ-33P]ATP, SAM68 peptide, 25° C.
Description: Assays were carried out in a mixture of 20 mM MOPS (pH 7.0), 10 mM MgCl2, 0.1% BSA and 1 mM DTT. […] Assays were carried out at 25° C. in the presence of 50 nM Itk. […] Ki(app) data were calculated from non-linear regression analysis of the initial rate data using the Prism software package (GraphPad Prism version 3.0cx for Macintosh, GraphPad Software, San Diego Calif., USA).
pKi: −log10 of the molar value.

# return pKi of CNCCNc1nccc(-c2c[nH]c(=O)c(NC(=O)c3ccc(N4CCCCC4)cc3)c2)n1 [II-63] (system: Itk (Homo sapiens))
> 7.00

Provide the reported pKi (system: Itk (Homo sapiens)) for O=C(Nc1cc(-c2cncc(NC3CC3)n2)c[nH]c1=O)c1ccc(N2CCC[C@H]2CN2CCCC2)cc1 [II-176]
6.00 to 7.00

System Itk (Homo sapiens). Read-out pKi. Item CNc1cccc(-c2c[nH]c(=O)c(NC(=O)c3ccc(C(C)(C)C)cc3)c2)n1 [II-7] . Report value.
6.00 to 7.00

Find the measured pKi of CN(C)c1nccc(-c2c[nH]c(=O)c(NC(=O)c3ccc(C(C)(C)C)cc3)c2)n1 [II-21] with Itk (Homo sapiens) as test system.
6.00 to 7.00
